Hello, the source for this data is ChEMBL document CHEMBL2203000, in case you need it.

Assayed Target: Mast/stem cell growth factor receptor Kit (Homo sapiens, UniProt P10721)
Sequence (P10721 whole entry): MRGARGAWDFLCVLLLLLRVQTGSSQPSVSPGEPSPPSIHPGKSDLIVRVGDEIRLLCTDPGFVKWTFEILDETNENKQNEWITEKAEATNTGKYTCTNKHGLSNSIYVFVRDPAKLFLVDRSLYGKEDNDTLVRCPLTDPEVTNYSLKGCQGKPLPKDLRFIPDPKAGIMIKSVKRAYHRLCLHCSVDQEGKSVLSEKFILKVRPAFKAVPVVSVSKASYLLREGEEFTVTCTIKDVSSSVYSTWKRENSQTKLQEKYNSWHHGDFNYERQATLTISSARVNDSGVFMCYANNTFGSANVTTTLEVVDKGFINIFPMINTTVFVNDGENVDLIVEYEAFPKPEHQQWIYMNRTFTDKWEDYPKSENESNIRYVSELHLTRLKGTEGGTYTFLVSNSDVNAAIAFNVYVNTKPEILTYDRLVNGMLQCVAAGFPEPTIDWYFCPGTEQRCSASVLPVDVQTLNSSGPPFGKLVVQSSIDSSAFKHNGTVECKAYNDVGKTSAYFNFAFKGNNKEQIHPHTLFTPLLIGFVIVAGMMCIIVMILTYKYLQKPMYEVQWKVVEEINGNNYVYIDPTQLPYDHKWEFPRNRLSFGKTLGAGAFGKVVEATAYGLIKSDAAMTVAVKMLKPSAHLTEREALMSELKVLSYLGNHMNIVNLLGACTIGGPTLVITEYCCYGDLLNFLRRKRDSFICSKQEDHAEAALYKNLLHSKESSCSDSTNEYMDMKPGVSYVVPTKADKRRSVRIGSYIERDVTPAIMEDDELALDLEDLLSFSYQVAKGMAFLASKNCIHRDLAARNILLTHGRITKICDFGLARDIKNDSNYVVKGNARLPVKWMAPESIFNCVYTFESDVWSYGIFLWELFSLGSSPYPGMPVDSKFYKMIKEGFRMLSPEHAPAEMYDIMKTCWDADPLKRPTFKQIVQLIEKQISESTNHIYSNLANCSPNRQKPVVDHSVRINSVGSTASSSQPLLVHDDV
Test Summary: Inhibition of KIT phosphorylation in human H526 cells
Outcome Measure: IC50 (nM)
Give bare numbers, in nM.

Consider the reported IC50 for these compounds:
CCN1CCC(Oc2ccc(C(=O)Nc3ccc(NC(=O)Nc4cc(C(C)(C)C)on4)cc3)nc2)CC1 = 7.9
CCN1C(C)(C)CC(Oc2ccc(C(=O)Nc3ccc(NC(=O)Nc4cc(C(C)(C)C)on4)cc3)nc2)CC1(C)C = 1.2

Consider the record given below.
Record CN1C(C)(C)CC(Oc2ccc(C(=O)Nc3ccc(NC(=O)Nc4cc(C(C)(C)C)on4)cc3)nc2)CC1(C)C , field IC50: 8
